biological target: ZBTB21 (UniProt Q9ULJ3); assay: log2 fold change, soluble protein after heating vs DMSO (PISA); higher = thermal stabilisation; K562 cells, 10 uM, 30 min; active = over 0.2 and 3.5 SD of the protein, either way, in both replicates (recomputed)
Sequence (Q9ULJ3 whole entry, looked up): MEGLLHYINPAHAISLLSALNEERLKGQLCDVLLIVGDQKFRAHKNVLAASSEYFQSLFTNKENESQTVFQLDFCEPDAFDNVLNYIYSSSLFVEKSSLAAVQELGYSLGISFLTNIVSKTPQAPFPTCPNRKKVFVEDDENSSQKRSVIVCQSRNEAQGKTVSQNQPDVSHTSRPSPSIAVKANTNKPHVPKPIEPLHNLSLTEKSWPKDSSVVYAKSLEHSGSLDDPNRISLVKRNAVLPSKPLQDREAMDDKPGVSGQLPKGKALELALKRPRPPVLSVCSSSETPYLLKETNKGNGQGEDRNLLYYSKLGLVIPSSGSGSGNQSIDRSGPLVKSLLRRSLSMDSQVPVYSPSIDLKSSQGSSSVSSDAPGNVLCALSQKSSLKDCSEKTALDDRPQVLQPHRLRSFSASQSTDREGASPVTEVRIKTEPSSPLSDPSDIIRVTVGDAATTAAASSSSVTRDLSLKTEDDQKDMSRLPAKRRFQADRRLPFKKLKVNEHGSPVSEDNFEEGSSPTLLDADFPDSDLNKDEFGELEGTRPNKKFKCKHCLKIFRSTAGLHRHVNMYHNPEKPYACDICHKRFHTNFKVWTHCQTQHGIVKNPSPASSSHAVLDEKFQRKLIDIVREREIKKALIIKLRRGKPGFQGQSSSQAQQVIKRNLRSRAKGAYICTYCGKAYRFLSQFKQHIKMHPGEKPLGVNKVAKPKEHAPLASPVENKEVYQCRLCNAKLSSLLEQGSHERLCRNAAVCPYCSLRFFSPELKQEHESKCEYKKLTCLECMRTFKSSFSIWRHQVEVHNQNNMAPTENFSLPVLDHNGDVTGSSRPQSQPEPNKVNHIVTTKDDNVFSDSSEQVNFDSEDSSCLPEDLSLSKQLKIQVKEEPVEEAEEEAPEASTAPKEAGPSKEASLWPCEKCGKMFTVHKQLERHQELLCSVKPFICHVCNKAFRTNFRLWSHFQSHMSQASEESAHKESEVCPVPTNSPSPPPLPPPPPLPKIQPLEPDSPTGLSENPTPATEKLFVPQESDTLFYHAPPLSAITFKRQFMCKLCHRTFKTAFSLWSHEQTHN
The full data set covers some 7,900 targets. This sample favours those with a hit. About 0.6% of all pairs of compound and target were hits.
measure: log2 fold change
Returns: the value as a bare number; no unit string appended.

[
  {
    "compound smiles": "NC(=O)Nc1cc(-c2cccc(F)c2)sc1C(=O)N[C@H]1CCCNC1",
    "numeric value": -0.083
  }
]

Incoming: # input compound: CN1CCN(CCOc2cc(OC3CCOCC3)c3c(Nc4c(Cl)ccc5c4OCO5)ncnc3c2)CC1 ; wanted: its log2 fold change
Outgoing: -0.149

Incoming: Same thing, different compound: C[C@@H]1COCCN1c1cc(C2(S(C)(=O)=O)CC2)nc(-c2cccc3[nH]ccc23)n1
Outgoing: -0.101

Incoming: Same thing, different compound: CS(=O)(=O)N1CCN(Cc2cc3nc(-c4cccc5[nH]ncc45)nc(N4CCOCC4)c3s2)CC1
Outgoing: -0.035

---

target: YES1 (UniProt P07947); assay: log2 fold change, soluble protein after heating vs DMSO (PISA); higher = thermal stabilisation; K562 cells, 10 uM, 30 min; active = over 0.2 and 3.5 SD of the protein, either way, in both replicates (recomputed)
Sequence (P07947 whole entry, looked up): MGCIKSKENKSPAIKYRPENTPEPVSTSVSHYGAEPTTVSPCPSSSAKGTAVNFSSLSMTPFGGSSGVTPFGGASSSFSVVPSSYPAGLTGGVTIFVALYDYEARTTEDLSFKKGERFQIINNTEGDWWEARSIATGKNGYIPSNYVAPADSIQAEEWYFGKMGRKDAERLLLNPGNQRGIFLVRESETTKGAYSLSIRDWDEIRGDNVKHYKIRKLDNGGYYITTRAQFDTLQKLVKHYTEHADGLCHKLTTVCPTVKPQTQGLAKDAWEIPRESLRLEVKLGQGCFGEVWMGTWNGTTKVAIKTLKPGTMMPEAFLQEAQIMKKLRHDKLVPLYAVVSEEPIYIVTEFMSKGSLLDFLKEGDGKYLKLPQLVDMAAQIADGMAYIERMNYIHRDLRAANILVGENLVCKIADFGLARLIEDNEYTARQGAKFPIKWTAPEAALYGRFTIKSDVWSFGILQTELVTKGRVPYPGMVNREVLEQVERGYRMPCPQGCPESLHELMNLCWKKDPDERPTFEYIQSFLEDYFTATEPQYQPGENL
About 7,900 targets were measured; listed, in parts, are those with a hit and a random draw of the rest. About 0.6% of all pairs of compound and target were hits.
measure: log2 fold change

Here are 5 molecules together with their reported answers.
[
  {
    "molecule": "O=C(O)c1ccc2c(c1)nc(Nc1cccc(Cl)c1)c1ccncc12 [silmitasertib]",
    "log2 fold change": "0.004 (inactive)"
  },
  {
    "molecule": "NCC(=O)Nc1ccc(-n2nc(C(F)(F)F)cc2-c2ccc3c(ccc4ccccc43)c2)cc1",
    "log2 fold change": "0.001 (inactive)"
  },
  {
    "molecule": "C#Cc1cccc(Nc2ncnc3cc(OCCOC)c(OCCOC)cc23)c1 [erlotinib]",
    "log2 fold change": "-0.145 (inactive)"
  },
  {
    "molecule": "COc1cc(C(=O)O)ccc1NC(=O)[C@@H]1N[C@@H](CC(C)(C)C)[C@](C#N)(c2ccc(Cl)cc2F)[C@H]1c1cccc(Cl)c1F [idasanutlin]",
    "log2 fold change": "0.041 (inactive)"
  },
  {
    "molecule": "CCN(CC)Cc1ccc2cc(COC(=O)Nc3ccc(C(=O)NO)cc3)ccc2c1 [givinostat]",
    "log2 fold change": "0.016 (inactive)"
  }
]

Incoming: Fill in the recorded log2 fold change for this molecule, with YES1 (UniProt P07947) as test system: CC(C)(C)Cn1c(N)nc2ccc(-c3[nH]c(C(C)(C)C)nc3-c3ccc(F)cc3)nc21 [ralimetinib]
Outgoing: -0.09 (inactive)

Incoming: Same thing, different molecule: COC(=O)N[C@@H](C)CNc1nccc(-c2cn(C(C)C)nc2-c2cc(Cl)cc(NS(C)(=O)=O)c2F)n1 [encorafenib]
Outgoing: 0.242 (inactive)

Incoming: Same thing, different molecule: c1cn2cc(-c3ccc4cn[nH]c4c3)nc(Nc3ccc(N4CCOCC4)cc3)c2n1 [entospletinib]
Outgoing: -0.219 (inactive)
